- target-system: MKNK1 (Homo sapiens, UniProt Q9BUB5, T385D)
- Construct: GST (N); purchased Carna Biosciences 02-145; host or cells: insect cells (baculovirus expression system)
- Sequence (Q9BUB5 1-424 isoform Q9BUB5-2 T344D): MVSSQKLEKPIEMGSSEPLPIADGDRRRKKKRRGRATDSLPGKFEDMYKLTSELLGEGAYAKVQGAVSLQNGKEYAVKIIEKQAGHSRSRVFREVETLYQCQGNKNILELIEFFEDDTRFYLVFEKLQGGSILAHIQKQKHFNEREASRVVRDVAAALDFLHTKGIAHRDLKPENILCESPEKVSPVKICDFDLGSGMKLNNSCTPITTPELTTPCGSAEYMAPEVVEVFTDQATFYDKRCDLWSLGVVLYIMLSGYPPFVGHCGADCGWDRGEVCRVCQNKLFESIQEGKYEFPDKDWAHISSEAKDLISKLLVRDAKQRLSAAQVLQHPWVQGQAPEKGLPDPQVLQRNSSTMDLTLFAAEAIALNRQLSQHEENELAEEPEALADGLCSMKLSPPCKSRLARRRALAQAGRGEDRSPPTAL
- assay-notes: MKNK1 kinase assay (MKNK1 TR-FRET assay)
- Format: biochemical
- setup-conditions: Table 1c; 10 μM ATP, 15 min preincubation
observation-type: IC50 (µM)
Quick reminder: number only, in µM, skip the unit.

Q) Which IC50 value belongs to C[C@H](N)COc1ccc2ncc(-c3cc4c(N5CCCC5)nccc4o3)n2n1 ?
A) 0.0154

Q) Which IC50 value belongs to N[C@H]1C[C@H](Oc2ccc3ncc(-c4cc5c(N6CCOCC6)nccc5o4)n3n2)C1 ?
A) 0.0032

----------
- target-system: MKNK1 (Homo sapiens, UniProt Q9BUB5, T385D)
- Construct: GST (N); purchased Carna Biosciences 02-145; host or cells: insect cells (baculovirus expression system)
- assay-notes: MKNK1 kinase assay (MKNK1 TR-FRET assay)
- Assay type: biochemical
- setup-conditions: Table 1b; 10 μM ATP, 15 min preincubation
observation-type: IC50 (nM)
Quick reminder: number only, in nM, skip the unit.

compound: C[C@H](N)COc1ccc2ncc(-c3cc4c(N5CCOCC5)cccc4o3)n2n1 [II-2]
unit-tag: nM
IC50: 16
--
compound: FC(F)(F)COc1ccc2ncc(-c3cc4c(N5CCNCC5)cccc4o3)n2n1 [II-56]
unit-tag: nM
IC50: 5.4
--
compound: C[C@H]1COCCN1c1cccc2oc(-c3cnc4ccc(OC[C@H]5CCC(=O)N5)nn34)cc12 [II-32]
unit-tag: nM
IC50: 4.4

Now consider a different compound.
Q) Which IC50 value belongs to C[C@@H]1CNCCN1c1cccc2oc(-c3cnc4ccc(OCC(F)(F)F)nn34)cc12 [II-64] ?
A) 9.3

----------
- target-system: MKNK1 (Homo sapiens, UniProt Q9BUB5, T385D)
- Construct: GST (N); purchased Carna Biosciences 02-145; host or cells: insect cells (baculovirus expression system)
- assay-notes: MKNK1 kinase high ATP assay (TR-FRET-based)
- Type: biochemical
- setup-conditions: Table 2b; 2 mM ATP, 15 min preincubation
observation-type: log10 IC50 (log10 of the value in nM)
Could you please treat all values as log10 of IC50 in nM?

Known results for molecules:
molecule: O=C1CC[C@H](COc2ccc3ncc(-c4cc5c(N6CCNCC6)cccc5o4)n3n2)N1
target-system: MKNK1 (Homo sapiens, UniProt Q9BUB5, T385D)
log10 IC50: -0.40
--
molecule: COc1ccc2ncc(-c3cc4c(N5CCNC(C)(C)C5)cccc4o3)n2n1
target-system: MKNK1 (Homo sapiens, UniProt Q9BUB5, T385D)
log10 IC50: -0.52
--
molecule: COc1ccc2ncc(-c3cc4c(N5CCNCC5)cccc4o3)n2n1
target-system: MKNK1 (Homo sapiens, UniProt Q9BUB5, T385D)
log10 IC50: -0.52
--
molecule: C[C@H]1COCCN1c1cccc2oc(-c3cnc4ccc(O[C@H]5C[C@H](N)C5)nn34)cc12
target-system: MKNK1 (Homo sapiens, UniProt Q9BUB5, T385D)
log10 IC50: 1.64
--
molecule: COC[C@H]1CCCN1c1cccc2oc(-c3cnc4ccc(OCCCS(C)(=O)=O)nn34)cc12
target-system: MKNK1 (Homo sapiens, UniProt Q9BUB5, T385D)
log10 IC50: 1.15
--
molecule: C[C@@H](N)COc1ccc2ncc(-c3cc4c(N5CCOC[C@@H]5C)cccc4o3)n2n1
target-system: MKNK1 (Homo sapiens, UniProt Q9BUB5, T385D)
log10 IC50: 1.41
--
molecule: N[C@H]1C[C@H](Oc2ccc3ncc(-c4cc5c(N6CCN(c7ccccc7)CC6)cccc5o4)n3n2)C1
target-system: MKNK1 (Homo sapiens, UniProt Q9BUB5, T385D)
log10 IC50: 1.18
--
molecule: C[C@H]1CN(c2cccc3oc(-c4cnc5ccc(OCCCS(C)(=O)=O)nn45)cc23)CCN1
target-system: MKNK1 (Homo sapiens, UniProt Q9BUB5, T385D)
log10 IC50: 0.85
--
molecule: C[C@@H]1COCCN1c1cccc2oc(-c3cnc4ccc(OC[C@@H]5CCC(=O)N5)nn34)cc12
target-system: MKNK1 (Homo sapiens, UniProt Q9BUB5, T385D)
log10 IC50: 1.71
--
molecule: C[C@@H]1CN(c2cccc3oc(-c4cnc5ccc(O[C@H]6C[C@H](N)C6)nn45)cc23)CCO1
target-system: MKNK1 (Homo sapiens, UniProt Q9BUB5, T385D)
log10 IC50: 1.68

Q) Which log10 IC50 value belongs to COC[C@H]1CCCN1c1cccc2oc(-c3cnc4ccc(OCCCS(C)(=O)=NC#N)nn34)cc12 (mixture of isomers) ?
A) 0.43

Q) Which log10 IC50 value belongs to C[C@H]1CN(c2cccc3oc(-c4cnc5ccc(OC[C@@H]6CCC(=O)N6)nn45)cc23)CCN1 ?
A) 0.76

src = patent US20160287589A1
